experiment: Pancreatin stability; assay type: in vitro ADME, porcine; details: pig, pancreatin, pH 7.5, 1 % (w/v) pancreatin, 5 µM, pH 7.5, 37 °C, after 60 min; read-out: % of Baclofen Released
OBSERVATION_TYPE: metabolised at 1 h, 5 µM (%)
Numeric only. Scale: %

Please review the following examples before continuing.
>  <COMPOUND>
CC(C)C(OC(=O)NC[C@H](CC(=O)O)c1ccc(Cl)cc1)OC(=O)C(C)(C)C (stereo partly drawn)

>  <metabolised at 1 h, 5 µM, %>
4

$$$$
>  <COMPOUND>
CCCC(=O)O[C@H](CCC)OC(=O)NC[C@H](CC(=O)O)c1ccc(Cl)cc1

>  <metabolised at 1 h, 5 µM, %>
76

$$$$
>  <COMPOUND>
CCCC(=O)OC(OC(=O)NC[C@H](CC(=O)O)c1ccc(Cl)cc1)C(C)C (stereo partly drawn)

>  <metabolised at 1 h, 5 µM, %>
9

$$$$
>  <COMPOUND>
CCCC(=O)OCOC(=O)NC[C@H](CC(=O)O)c1ccc(Cl)cc1

>  <metabolised at 1 h, 5 µM, %>
84

$$$$
>  <COMPOUND>
CC(C)C(=O)OCOC(=O)NC[C@H](CC(=O)O)c1ccc(Cl)cc1

>  <metabolised at 1 h, 5 µM, %>
91

$$$$

### Prompt Request the reported metabolised at 1 h, 5 µM associated with CC(=O)OC(C)OC(=O)NC[C@H](CC(=O)O)c1ccc(Cl)cc1 (stereo partly drawn)
### Response 9
